Assay: Tmax in Sprague-Dawley rat at 10 mg/kg, po
Format: ADME, organism-based
Design: dose 10 mg/kg, route oral
Conditions: in vivo
MEASURED_PARAMETER: Tmax (h)

[
  {
    "MOLECULAR_STRING": "Cc1nc(Nc2ncc(C(=O)Nc3c(C)cccc3Cl)s2)cc(N2CCN(CCO)CC2)n1.O",
    "UOM": "h",
    "READING": 2.2
  }
]

###

Test: AUC (total) in Sprague-Dawley rat at 10 mg/kg, po
Type: ADME, organism-based
Set-up: dose 10 mg/kg, route oral
Conditions: plasma
MEASURED_PARAMETER: AUC

[
  {
    "MOLECULAR_STRING": "Cc1nc(Nc2ncc(C(=O)Nc3c(C)cccc3Cl)s2)cc(N2CCN(CCO)CC2)n1.O",
    "READING": "3.8 µM·h"
  }
]
